measurement_description: Toxicity against human RBCs assessed as hemolysis at 100 uM after 1 hr by spectrophotometry
Assay type: cell-based, Erythrocyte
test_context: red blood cells (RBCs), read-out: Activity
readout_type: hemolysis at 1 h, 100 µM (%)
Please state the figure in %; there is no need to write the unit.

{"columns": ["substance", "unit_symbol", "hemolysis at 1 h, 100 µM"],
 "data": [
  ["H-WKSYVRRWRSRY-OH", "%", 1.5],
  ["H-WWSYVRRWRSR-OH", "%", 3.4],
  ["H-WKSYVRRWR-OH", "%", 1.1],
  ["H-KKSYVRRWRS-OH", "%", -0.6],
  ["H-WKSYVRRW-OH", "%", 2],
  ["H-WKSYVRRWRSR-OH", "%", -1.2]
]}

Query: Identify measured hemolysis at 1 h, 100 µM associated with `H-WKSYVRRWRS-OH`
Reply: -0.4

Query: Give reported hemolysis at 1 h, 100 µM value for `H-WKSDVRRWRSRY-OH`
Reply: 0.3
